Test system: c-Src
experiment: phosphorylation enrichment, bacterial display (enrichment ratio); higher = better substrate or ligand; peptides without Tyr show the background
Rule: phosphorylation enrichment under 1 gives false, otherwise true.

Record excerpt, results attached:
> print(dat)
              chain.sequence  label.value
1  LPENPYHSRPR [NDUFA8_Y142]         true
2  NAGAFYALSTL [FLVCR2_Y325]         true

Does the reported phosphorylation enrichment for ISNATYKQIGL [FLT1_Y199_E201Q] fall at or above the 1 mark?
false

Does the reported phosphorylation enrichment for CTTIHYNYICN [TP53_Y234_M237I] fall at or above the 1 mark?
false

Does the reported phosphorylation enrichment for QMIETYFDFRV [NSMF_Y506_L511V] fall at or above the 1 mark?
true

====

subject of test: FGFR3 (UniProt P22607)
Sequence (P22607 whole entry, looked up): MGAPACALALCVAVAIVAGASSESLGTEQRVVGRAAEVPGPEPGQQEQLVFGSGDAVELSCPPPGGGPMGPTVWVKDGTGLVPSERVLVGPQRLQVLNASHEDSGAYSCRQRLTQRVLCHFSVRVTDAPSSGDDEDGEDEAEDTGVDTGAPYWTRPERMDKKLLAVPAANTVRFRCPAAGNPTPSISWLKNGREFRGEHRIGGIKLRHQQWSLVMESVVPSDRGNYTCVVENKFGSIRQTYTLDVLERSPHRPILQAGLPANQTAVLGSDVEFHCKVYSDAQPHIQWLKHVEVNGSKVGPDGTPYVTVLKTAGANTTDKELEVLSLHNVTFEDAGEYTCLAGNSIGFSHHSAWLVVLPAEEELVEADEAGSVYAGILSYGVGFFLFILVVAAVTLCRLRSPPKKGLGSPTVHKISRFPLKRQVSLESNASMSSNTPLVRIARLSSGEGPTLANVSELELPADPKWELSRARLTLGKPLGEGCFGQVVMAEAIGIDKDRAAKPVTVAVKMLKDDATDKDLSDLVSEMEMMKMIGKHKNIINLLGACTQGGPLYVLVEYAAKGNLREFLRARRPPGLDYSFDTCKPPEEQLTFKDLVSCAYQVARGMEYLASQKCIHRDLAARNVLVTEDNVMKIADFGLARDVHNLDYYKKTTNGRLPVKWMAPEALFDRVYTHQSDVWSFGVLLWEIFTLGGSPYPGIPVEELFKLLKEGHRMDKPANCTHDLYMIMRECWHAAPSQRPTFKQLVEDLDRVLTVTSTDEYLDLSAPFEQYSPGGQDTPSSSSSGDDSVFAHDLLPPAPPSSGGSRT
experiment: phosphorylation enrichment, bacterial display (enrichment ratio); higher = better substrate or ligand; peptides without Tyr show the background
Recorded phosphorylation enrichment determines the label; the label ranges are low value (below 0.5), medium value (0.5 to below 0.8), high value (0.8 or more)

Record excerpt, results attached:
> print(dat)
                       chain.sequence   label.value
1    QKPLGYFRVNL [GALE_Y104_D103G_YF]  medium value
2              PEADKYRLTYA [FGG_Y300]    high value
3   HLMLQYDAVVN [SLC25A32_Y152_R147H]    high value
4        NGVSFYINLCQ [IGF2R_Y2025_YF]    high value
5            PFWKLYESVKK [MKI67_Y241]  medium value
6           RLSVDYSKKSK [TUBA3E_Y161]     low value
7       KGEDFYYVTCH [FHL1_Y149_C150Y]    high value
8  RFLTRYIFNRE [HLA-DQB1_Y62_V59L_YF]  medium value

Assign a category based on measured phosphorylation enrichment for RSSGGYEPRGC [FUS_Y239_R244C] and give only the class name.
medium value

Assign a category based on measured phosphorylation enrichment for AAYNKYDQERF [CDC73_Y293_R292K] and give only the class name.
low value

Assign a category based on measured phosphorylation enrichment for VRTGIYHGGEP [PIK3CA_Y361] and give only the class name.
low value

Assign a category based on measured phosphorylation enrichment for KVASVYEAPGF [NT5C_Y65] and give only the class name.
medium value

====

subject of test: EPHB2 (UniProt P29323)
Sequence (P29323 whole entry, looked up): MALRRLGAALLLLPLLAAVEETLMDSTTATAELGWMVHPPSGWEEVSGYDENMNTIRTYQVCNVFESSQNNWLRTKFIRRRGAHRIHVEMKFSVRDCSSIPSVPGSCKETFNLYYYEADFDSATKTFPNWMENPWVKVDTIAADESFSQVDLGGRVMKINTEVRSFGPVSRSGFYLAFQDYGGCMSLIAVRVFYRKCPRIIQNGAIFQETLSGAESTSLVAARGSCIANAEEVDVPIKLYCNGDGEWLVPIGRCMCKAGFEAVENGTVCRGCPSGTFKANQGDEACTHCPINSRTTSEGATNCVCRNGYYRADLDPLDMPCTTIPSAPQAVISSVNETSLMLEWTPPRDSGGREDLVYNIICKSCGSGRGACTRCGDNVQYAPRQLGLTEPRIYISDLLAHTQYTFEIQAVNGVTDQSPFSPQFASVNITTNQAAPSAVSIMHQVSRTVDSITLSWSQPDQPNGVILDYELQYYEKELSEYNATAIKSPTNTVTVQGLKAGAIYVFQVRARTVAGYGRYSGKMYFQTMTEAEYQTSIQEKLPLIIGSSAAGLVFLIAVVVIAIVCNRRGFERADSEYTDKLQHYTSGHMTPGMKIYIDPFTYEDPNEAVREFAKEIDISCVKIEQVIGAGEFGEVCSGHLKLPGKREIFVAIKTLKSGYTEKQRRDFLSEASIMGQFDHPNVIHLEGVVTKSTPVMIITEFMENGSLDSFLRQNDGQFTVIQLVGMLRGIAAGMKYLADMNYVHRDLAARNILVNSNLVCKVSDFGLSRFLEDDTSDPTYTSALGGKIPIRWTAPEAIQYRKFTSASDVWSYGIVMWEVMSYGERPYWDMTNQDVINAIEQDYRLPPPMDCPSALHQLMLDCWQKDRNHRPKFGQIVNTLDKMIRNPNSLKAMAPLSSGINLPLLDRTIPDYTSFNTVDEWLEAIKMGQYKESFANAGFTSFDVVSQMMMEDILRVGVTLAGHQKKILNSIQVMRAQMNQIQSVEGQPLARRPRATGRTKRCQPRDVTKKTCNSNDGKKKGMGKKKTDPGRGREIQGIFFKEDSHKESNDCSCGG
experiment: phosphorylation enrichment, bacterial display (enrichment ratio); higher = better substrate or ligand; peptides without Tyr show the background
Measured phosphorylation enrichment by item

# example entries with known answers
> print(dat)
                     chain.sequence  observed.measurement
 1        EIVFVYVKKRS [DNAI2_Y7_YF]                 0.476
 2          HTDDGYMPMSP [IRS1_Y612]                 0.756
 3         SYCYRYRCAAR [SUMF1_Y344]                 0.512
 4   FSQETYYRVSN [ABCD1_Y180_Q178E]                  2.73
 5   IGEGTSGVVFK [CDK2_Y15_Y15S_YF]                 0.457
 6  CSGNCYLDIRP [FBN1_Y1535_R1530C]                 0.442
 7          LARDMYDKEYY [MET_Y1230]                 0.627
 8  IRTIDYRFTVS [IDS_Y497_W502S_YF]                 0.547
 9    TSSAGYRRTPS [ABI1_Y333_G331A]                 0.497
10    QRRLVYYERGA [RYR1_Y245_G248R]                 0.345

Note down phosphorylation enrichment recorded for SVTCTYSPGLN [TP53_Y126_A129G]
0.686

Note down phosphorylation enrichment recorded for ENELTYFCCKK [CD59_Y86_YF]
0.543

Note down phosphorylation enrichment recorded for EQKRYYNAMKK [SCN5A_Y1495_K1493R]
0.317

Note down phosphorylation enrichment recorded for STFVPCEIKVQ [L1CAM_Y784_Y784C]
0.727

Note down phosphorylation enrichment recorded for TESNNYIFKTL [FAM83B_Y637_YF]
1.06

Note down phosphorylation enrichment recorded for GFPVRYTDVSN [DNMT3B_Y815_H814R]
0.441

====

subject of test: Fyn (UniProt P06241)
Sequence (P06241 whole entry, looked up): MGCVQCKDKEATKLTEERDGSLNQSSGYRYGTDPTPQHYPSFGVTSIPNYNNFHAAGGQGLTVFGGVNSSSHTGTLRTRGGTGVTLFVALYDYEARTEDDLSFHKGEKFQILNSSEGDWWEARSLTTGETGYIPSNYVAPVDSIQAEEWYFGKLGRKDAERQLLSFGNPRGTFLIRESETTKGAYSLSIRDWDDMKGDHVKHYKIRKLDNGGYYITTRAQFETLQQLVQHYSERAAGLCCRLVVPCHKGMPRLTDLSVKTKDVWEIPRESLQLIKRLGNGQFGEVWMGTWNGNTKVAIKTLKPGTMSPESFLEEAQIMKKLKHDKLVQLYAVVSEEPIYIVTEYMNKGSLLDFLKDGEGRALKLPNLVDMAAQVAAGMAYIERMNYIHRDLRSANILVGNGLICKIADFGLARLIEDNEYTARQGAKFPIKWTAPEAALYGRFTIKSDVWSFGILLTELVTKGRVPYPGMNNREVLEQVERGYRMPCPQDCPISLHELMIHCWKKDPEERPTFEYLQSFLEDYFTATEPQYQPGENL
experiment: phosphorylation enrichment, bacterial display (enrichment ratio); higher = better substrate or ligand; peptides without Tyr show the background
measurement kind: phosphorylation enrichment
Field format: numeric only.

# example entries with known answers
> print(dat)
                     chain.sequence  observed.measurement
1      ARAHKYHGGGG [HBB_Y146_L142R]                 0.312
2  SRIWVYNHYRC [BRCA2_Y2621_W2626C]                 0.396
3        VSFDEYRFRSV [CFTR_Y515_YF]                 0.489
4     SVLVPYEPPEV [TP53_Y220_V217L]                 0.555
5    DAVCYYRMENA [NPHS2_Y195_I192V]                  1.34
6        HNQDGYSFPSR [LDLR_Y845_YF]                 0.996

Turning now to a further sequence:
Note down phosphorylation enrichment recorded for WSISFYPQVIM [CTNS_Y143]
0.354

====

Measured phosphorylation enrichment by item
subject of test: Hck (UniProt P08631)
Sequence (P08631 whole entry, looked up): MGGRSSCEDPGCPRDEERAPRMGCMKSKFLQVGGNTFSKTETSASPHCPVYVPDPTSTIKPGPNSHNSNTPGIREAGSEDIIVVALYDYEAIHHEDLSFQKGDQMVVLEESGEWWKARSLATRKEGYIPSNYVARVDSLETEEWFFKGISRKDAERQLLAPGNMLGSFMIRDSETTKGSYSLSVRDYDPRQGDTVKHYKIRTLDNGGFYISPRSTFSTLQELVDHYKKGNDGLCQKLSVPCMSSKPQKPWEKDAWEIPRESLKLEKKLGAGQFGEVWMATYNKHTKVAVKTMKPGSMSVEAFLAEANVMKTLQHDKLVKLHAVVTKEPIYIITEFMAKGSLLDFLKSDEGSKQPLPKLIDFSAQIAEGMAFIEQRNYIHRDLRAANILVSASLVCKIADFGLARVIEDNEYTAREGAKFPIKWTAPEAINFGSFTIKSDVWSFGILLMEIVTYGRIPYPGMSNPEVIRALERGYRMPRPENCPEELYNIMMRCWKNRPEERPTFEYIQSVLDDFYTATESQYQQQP
experiment: phosphorylation enrichment, bacterial display (enrichment ratio); higher = better substrate or ligand; peptides without Tyr show the background
Field format: numeric only.

> print(dat)
              chain.sequence            measurement.kind  observed.measurement
1  SNSATYSGSVA [PDLIM5_Y382]  phosphorylation enrichment                  0.56
2    MQMEEYRGWVE [BTNL2_Y91]  phosphorylation enrichment                 0.464

Turning now to a further sequence:
Note down phosphorylation enrichment recorded for KGEPQYSSHSS [SIPA1L3_Y1265]
0.295

====

System: Fer (mouse)
experiment: phosphorylation enrichment, bacterial display (enrichment ratio); higher = better substrate or ligand; peptides without Tyr show the background
Measured phosphorylation enrichment by item
Field format: numeric only.

> print(dat)
              chain.sequence            measurement.kind  observed.measurement
1   TQKLAYMELQQ [CENPF_Y700]  phosphorylation enrichment                 0.513
2  MTFQNYGQALF [FAM20C_Y279]  phosphorylation enrichment                 0.496

Note down phosphorylation enrichment recorded for PVKDPYVMFPQ [PLEKHG2_Y489]
0.49

====

subject of test: c-Src SH2
experiment: SH2 binding enrichment of the phosphorylated peptide, bacterial display (enrichment ratio); higher = better substrate or ligand; peptides without Tyr show the background
Measured SH2 binding enrichment by item
Field format: numeric only.

Note down SH2 binding enrichment recorded for DVLVEYQGEGR [GNS_Y416]
0.606

Note down SH2 binding enrichment recorded for CDGKEYDPVEA [MAPRE2_Y167_Y162C]
0.615

Note down SH2 binding enrichment recorded for MDNQEYKDAFT [BRDT_Y331_K336T_YF]
0.617

Note down SH2 binding enrichment recorded for FPPDGYSRHCE [CTNND1_Y213_Y217C_YF]
0.617

====

subject of test: Fes (UniProt P07332)
Sequence (P07332 whole entry, looked up): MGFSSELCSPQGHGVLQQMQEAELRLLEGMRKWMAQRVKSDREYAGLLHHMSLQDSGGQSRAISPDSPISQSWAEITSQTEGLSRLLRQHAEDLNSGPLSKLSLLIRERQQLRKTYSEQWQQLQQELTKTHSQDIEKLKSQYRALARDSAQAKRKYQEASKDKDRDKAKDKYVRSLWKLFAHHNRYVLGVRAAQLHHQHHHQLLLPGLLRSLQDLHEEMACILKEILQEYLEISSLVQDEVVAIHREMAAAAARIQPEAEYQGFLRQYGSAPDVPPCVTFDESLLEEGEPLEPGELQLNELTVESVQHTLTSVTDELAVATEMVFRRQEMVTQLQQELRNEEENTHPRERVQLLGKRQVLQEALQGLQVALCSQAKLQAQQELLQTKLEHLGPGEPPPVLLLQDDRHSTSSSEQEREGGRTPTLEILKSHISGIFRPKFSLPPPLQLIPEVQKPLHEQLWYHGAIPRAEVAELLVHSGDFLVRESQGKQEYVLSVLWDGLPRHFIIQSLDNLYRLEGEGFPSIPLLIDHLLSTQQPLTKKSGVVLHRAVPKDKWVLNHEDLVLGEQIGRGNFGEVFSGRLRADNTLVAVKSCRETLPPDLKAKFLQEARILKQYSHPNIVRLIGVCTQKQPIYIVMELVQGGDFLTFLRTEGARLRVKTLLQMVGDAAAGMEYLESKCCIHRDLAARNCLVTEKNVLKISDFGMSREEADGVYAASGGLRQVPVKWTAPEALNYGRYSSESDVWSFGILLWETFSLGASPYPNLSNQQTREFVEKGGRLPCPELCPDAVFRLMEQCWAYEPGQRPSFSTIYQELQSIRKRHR
experiment: phosphorylation enrichment, bacterial display (enrichment ratio); higher = better substrate or ligand; peptides without Tyr show the background
Measured phosphorylation enrichment by item
Field format: numeric only.

> print(dat)
                       chain.sequence       subject.of.test            measurement.kind  observed.measurement
1  GIVEDYRPPLF [ACVRL1_Y421_F425L_YF]  Fes (UniProt P07332)  phosphorylation enrichment                 0.904
2             NDLMEYAKQHG [ASS1_Y163]  Fes (UniProt P07332)  phosphorylation enrichment                 0.896
3         KHMADYPDFKF [SOX11_Y113_YF]  Fes (UniProt P07332)  phosphorylation enrichment                  0.84
4         CSKRFYQLTKL [AR_Y858_R855K]  Fes (UniProt P07332)  phosphorylation enrichment                 0.888
5             MQMEEYRGWVE [BTNL2_Y91]  Fes (UniProt P07332)  phosphorylation enrichment                  1.07

Turning now to a further sequence:
Note down phosphorylation enrichment recorded for KGEDFYSVTCH [FHL1_Y149_C150S]
1.35
